Data credit: PubChem BioAssay AID1963962

Measured viability, T/C, listed per entry.
Test system: 967376-340-R-J2-PDC multicell spheroid viability
Assay: Anticancer human tumor 967376-340-R-J2-PDC patient-derived colon adenocarcinoma cell line growth inhibition [PI3K]
Conditions: second compound 0.316 µM; first compound 0.0316 µM; stronger effect = lower value
assay readout: viability, T/C

compound="CC1(C)CCC(CN2CCN(c3ccc(C(=O)NS(=O)(=O)c4ccc(NCC5CCOCC5)c([N+](=O)[O-])c4)c(Oc4cnc5[nH]ccc5c4)c3)CC2)=C(c2ccc(Cl)cc2)C1 + CC(Nc1ccc2c(c1)OCCn1cc(N3C(=O)OCC3C(F)F)nc1-2)C(N)=O" assay_readout="viability, T/C" result=68.3%
compound="CC(=O)c1c(C)c2cnc(Nc3ccc(N4CCNCC4)cn3)nc2n(C2CCCC2)c1=O + COc1c(OCCCN2CCOCC2)ccc2c3n(c(=NC(=O)c4cnc(N)nc4)nc12)CCN3" assay_readout="viability, T/C" result=45.5%
compound="CC1(C)CCC(CN2CCN(c3ccc(C(=O)NS(=O)(=O)c4ccc(NCC5CCOCC5)c([N+](=O)[O-])c4)c(Oc4cnc5[nH]ccc5c4)c3)CC2)=C(c2ccc(Cl)cc2)C1 + CC(Nc1ncnc2nc[nH]c12)c1cc2cccc(Cl)c2c(=O)n1-c1ccccc1" assay_readout="viability, T/C" result=102%
compound="Cn1nccc1Nc1nccc(-c2ccn(C(CO)c3ccc(Cl)c(F)c3)c(=O)c2)n1 (stereo not given) + Cc1nc(NC(=O)N2CCCC2C(N)=O)sc1-c1ccnc(C(C)(C)C(F)(F)F)c1" assay_readout="viability, T/C" result=65.4%
compound="CNC(=O)c1ccc(N2C(=S)N(c3ccc(C#N)c(C(F)(F)F)c3)C(=O)C2(C)C)cc1F + CC(Nc1ncnc2nc[nH]c12)c1cc2cccc(Cl)c2c(=O)n1-c1ccccc1" assay_readout="viability, T/C" result=89.6%
compound="C=CC(=O)N1CCN(c2nc(=O)n(-c3c(C)ccnc3C(C)C)c3nc(-c4c(O)cccc4F)c(F)cc23)C(C)C1 (stereo not given) + Cc1nc(NC(=O)N2CCCC2C(N)=O)sc1-c1ccnc(C(C)(C)C(F)(F)F)c1" assay_readout="viability, T/C" result=73.3%
compound="CC1(C)CCC(Nc2ncc(C(F)(F)F)c(-c3c[nH]c4c(P(C)(C)=O)c(C#N)ccc34)n2)CN1 (stereo not given) + CC(Nc1ncnc2nc[nH]c12)c1cc2cccc(Cl)c2c(=O)n1-c1ccccc1" assay_readout="viability, T/C" result=83.5%
compound="CC1(C)CCC(CN2CCN(c3ccc(C(=O)NS(=O)(=O)c4ccc(NCC5CCOCC5)c([N+](=O)[O-])c4)c(Oc4cnc5[nH]ccc5c4)c3)CC2)=C(c2ccc(Cl)cc2)C1 + COc1c(OCCCN2CCOCC2)ccc2c3n(c(=NC(=O)c4cnc(N)nc4)nc12)CCN3" assay_readout="viability, T/C" result=35.4%
compound="CC1(C)CCC(Nc2ncc(C(F)(F)F)c(-c3c[nH]c4c(P(C)(C)=O)c(C#N)ccc34)n2)CN1 (stereo not given) + COc1c(OCCCN2CCOCC2)ccc2c3n(c(=NC(=O)c4cnc(N)nc4)nc12)CCN3" assay_readout="viability, T/C" result=49.4%
compound="C#Cc1c(F)ccc2cc(O)cc(-c3ncc4c(N5CC6CCC(C5)N6)nc(OCC56CCCN5CC(F)C6)nc4c3F)c12 (stereo not given) + Cc1nc(NC(=O)N2CCCC2C(N)=O)sc1-c1ccnc(C(C)(C)C(F)(F)F)c1" assay_readout="viability, T/C" result=64.3%

====

Tested on: 967376-340-R-J2-PDC multicell spheroid viability
Assay: Anticancer human tumor 967376-340-R-J2-PDC cell line growth inhibition [PI3K];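 also: spheroids exposed to agents for 7 days before read-out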
Conditions: curve of first compound; second compound 0.01 µM
assay readout: IC50

compound="Cn1ncc(Cl)c1-c1cc(C(=O)NC(CN)Cc2cccc(F)c2)sc1Cl (stereo not drawn) + COc1c(OCCCN2CCOCC2)ccc2c3n(c(=NC(=O)c4cnc(N)nc4)nc12)CCN3" assay_readout=IC50 result="> 10 µM"
compound="C#Cc1c(F)ccc2cc(O)cc(-c3ncc4c(N5CC6CCC(C5)N6)nc(OCC56CCCN5CC(F)C6)nc4c3F)c12 (stereo not drawn) + CC(Nc1ccc2c(c1)OCCn1cc(N3C(=O)OCC3C(F)F)nc1-2)C(N)=O" assay_readout=IC50 result="> 10 µM"
compound="C[C@@H](NC(=O)c1ncnc(N)c1Cl)c1ncc(C(=O)Nc2cc(C(F)(F)F)c(Cl)cn2)s1 + COc1c(OCCCN2CCOCC2)ccc2c3n(c(=NC(=O)c4cnc(N)nc4)nc12)CCN3" assay_readout=IC50 result="> 10 µM"

====

System: 967376-340-R-J2-PDC multicell spheroid viability
Experiment: Anticancer human tumor 967376-340-R-J2-PDC cell line growth inhibition [PI3K];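 also: spheroids exposed to agents for 7 days before read-out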;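 as to viability, T/C: luminescence used as surrogate of cell viability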
Settings: compound 0.1 µM; stronger effect = lower value
assay readout: viability, T/C

molecule="CC(Cn1ccc(-c2ccc(C#N)c(Cl)c2)n1)NC(=O)c1cc(C(C)O)[nH]n1 (centres undefined)" result="99.6% [middle of 4 runs]"
molecule=C[C@@H](NC(=O)c1ncnc(N)c1Cl)c1ncc(C(=O)Nc2cc(C(F)(F)F)c(Cl)cn2)s1 result="95.8% [middle of 4 runs]"
molecule="Cn1nccc1Nc1nccc(-c2ccn(C(CO)c3ccc(Cl)c(F)c3)c(=O)c2)n1 (centres undefined)" result="94.5% [middle of 4 runs]"
molecule="CC(Nc1ccc2c(c1)OCCn1cc(N3C(=O)OCC3C(F)F)nc1-2)C(N)=O (centres undefined)" result="81.4% [middle of 7 runs]"

====

Measured viability, T/C, listed per entry.
Test system: 967376-340-R-J2-PDC multicell spheroid viability
Assay: Anticancer human tumor 967376-340-R-J2-PDC cell line growth inhibition [PI3K];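 also: spheroids exposed to agents for 7 days before read-out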;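 as to viability, T/C: luminescence used as surrogate of cell viability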
Settings: second compound 0.1 µM; first compound 0.316 µM; stronger effect = lower value
assay readout: viability, T/C

compound="CC1(C)CCC(CN2CCN(c3ccc(C(=O)NS(=O)(=O)c4ccc(NCC5CCOCC5)c([N+](=O)[O-])c4)c(Oc4cnc5[nH]ccc5c4)c3)CC2)=C(c2ccc(Cl)cc2)C1 + CC(Nc1ncnc2nc[nH]c12)c1cc2cccc(Cl)c2c(=O)n1-c1ccccc1" assay_readout="viability, T/C" result=82.7%
compound="CC1(C)CCC(Nc2ncc(C(F)(F)F)c(-c3c[nH]c4c(P(C)(C)=O)c(C#N)ccc34)n2)CN1 (stereo not given) + COc1c(OCCCN2CCOCC2)ccc2c3n(c(=NC(=O)c4cnc(N)nc4)nc12)CCN3" assay_readout="viability, T/C" result=54.1%
compound="CNC(=O)c1ccc(N2C(=S)N(c3ccc(C#N)c(C(F)(F)F)c3)C(=O)C2(C)C)cc1F + COc1c(OCCCN2CCOCC2)ccc2c3n(c(=NC(=O)c4cnc(N)nc4)nc12)CCN3" assay_readout="viability, T/C" result=64.5%
compound="CC(C)NCC(C(=O)N1CCN(c2ncnc3c2C(C)CC3O)CC1)c1ccc(Cl)cc1 (stereo not given) + COc1c(OCCCN2CCOCC2)ccc2c3n(c(=NC(=O)c4cnc(N)nc4)nc12)CCN3" assay_readout="viability, T/C" result=74.5%
compound="Cn1ncc(Cl)c1-c1cc(C(=O)NC(CN)Cc2cccc(F)c2)sc1Cl (stereo not given) + COc1c(OCCCN2CCOCC2)ccc2c3n(c(=NC(=O)c4cnc(N)nc4)nc12)CCN3" assay_readout="viability, T/C" result=77.9%
compound="Cn1nccc1Nc1nccc(-c2ccn(C(CO)c3ccc(Cl)c(F)c3)c(=O)c2)n1 (stereo not given) + COc1c(OCCCN2CCOCC2)ccc2c3n(c(=NC(=O)c4cnc(N)nc4)nc12)CCN3" assay_readout="viability, T/C" result=55.6%
compound="CC(Cn1ccc(-c2ccc(C#N)c(Cl)c2)n1)NC(=O)c1cc(C(C)O)[nH]n1 (stereo not given) + COc1c(OCCCN2CCOCC2)ccc2c3n(c(=NC(=O)c4cnc(N)nc4)nc12)CCN3" assay_readout="viability, T/C" result=59.4%
compound="CC1(C)CCC(CN2CCN(c3ccc(C(=O)NS(=O)(=O)c4ccc(NCC5CCOCC5)c([N+](=O)[O-])c4)c(Oc4cnc5[nH]ccc5c4)c3)CC2)=C(c2ccc(Cl)cc2)C1 + COc1c(OCCCN2CCOCC2)ccc2c3n(c(=NC(=O)c4cnc(N)nc4)nc12)CCN3" assay_readout="viability, T/C" result=44.2%
compound="CCCS(=O)(=O)Nc1ccc(F)c(C(=O)c2c[nH]c3ncc(-c4ccc(Cl)cc4)cc23)c1F + COc1c(OCCCN2CCOCC2)ccc2c3n(c(=NC(=O)c4cnc(N)nc4)nc12)CCN3" assay_readout="viability, T/C" result=77%
compound="Cn1ncc(Cl)c1-c1cc(C(=O)NC(CN)Cc2cccc(F)c2)sc1Cl (stereo not given) + CC(Nc1ccc2c(c1)OCCn1cc(N3C(=O)OCC3C(F)F)nc1-2)C(N)=O" assay_readout="viability, T/C" result=87.7%
